molecular target: human TLR7 (Homo sapiens); construct: host or cells: HEK-Blue TLR7 cells (engineered human embryonic kidney cells); assay: Human TLR7 agonist activity (hTLR7 reporter) assay in HEK-Blue TLR7 cells, SEAP readout; format: cell-based; conditions: 18 h treatment, average where assay repeated
Sequence (Q9NYK1 27-1049): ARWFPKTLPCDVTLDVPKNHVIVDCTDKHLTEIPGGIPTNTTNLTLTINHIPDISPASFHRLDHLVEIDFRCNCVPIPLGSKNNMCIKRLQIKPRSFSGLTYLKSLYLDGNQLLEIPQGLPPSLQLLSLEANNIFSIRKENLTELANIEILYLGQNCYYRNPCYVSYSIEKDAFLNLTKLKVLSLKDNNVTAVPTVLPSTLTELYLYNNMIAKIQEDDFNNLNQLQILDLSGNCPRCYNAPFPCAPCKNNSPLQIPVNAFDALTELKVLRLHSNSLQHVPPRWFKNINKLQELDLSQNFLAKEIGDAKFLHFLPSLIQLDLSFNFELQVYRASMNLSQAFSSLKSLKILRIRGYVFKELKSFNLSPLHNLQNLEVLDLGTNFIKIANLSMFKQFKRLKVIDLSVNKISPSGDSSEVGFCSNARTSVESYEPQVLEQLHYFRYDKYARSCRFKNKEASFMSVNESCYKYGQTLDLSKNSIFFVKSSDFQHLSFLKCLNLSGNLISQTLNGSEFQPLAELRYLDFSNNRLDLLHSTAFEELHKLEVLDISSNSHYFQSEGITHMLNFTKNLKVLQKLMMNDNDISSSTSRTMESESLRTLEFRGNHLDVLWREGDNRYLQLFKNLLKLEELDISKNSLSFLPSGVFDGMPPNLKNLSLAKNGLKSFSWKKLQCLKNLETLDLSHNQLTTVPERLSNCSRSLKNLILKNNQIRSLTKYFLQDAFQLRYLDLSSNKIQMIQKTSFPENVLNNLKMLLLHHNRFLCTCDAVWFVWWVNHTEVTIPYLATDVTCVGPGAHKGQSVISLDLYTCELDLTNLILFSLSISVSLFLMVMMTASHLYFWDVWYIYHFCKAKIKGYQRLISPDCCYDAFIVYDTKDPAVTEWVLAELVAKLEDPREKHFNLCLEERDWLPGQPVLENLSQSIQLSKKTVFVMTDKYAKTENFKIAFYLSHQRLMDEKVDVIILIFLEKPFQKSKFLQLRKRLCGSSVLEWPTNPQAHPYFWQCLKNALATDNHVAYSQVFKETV
EC50 reference

- COMPOUND: "COc1cc(C(=O)N2CC3(CN(C)C3)C2)ccc1Cn1ncc2nc(N)nc(NCc3cc(C)on3)c21"
  EC50, nM: 67.6
- COMPOUND: "COc1cc(C(=O)N2C[C@H]3C[C@@H]2CN3C)ccc1Cn1ncc2nc(N)nc(NCC3CC4(C3)CC(F)(F)C4)c21"
  EC50, nM: 780
- COMPOUND: "COc1cc(CN2C[C@@H]3C[C@H]2CN3)ccc1Cn1ncc2nc(N)nc(NCC3CC4(C3)CC4F)c21 (some centres unmarked)"
  EC50, nM: 193
- COMPOUND: "COc1cc(C(=O)N2C[C@@H]3C[C@H]2CN3)ccc1Cn1ncc2nc(N)nc(NCC3CC4(CCC4)C3)c21"
  EC50, nM: 254
- COMPOUND: "COc1cc(C(=O)NC2CCN(C)CC2)ccc1Cn1ncc2nc(N)nc(NCC3CC4(C3)CC4(F)F)c21 (centres unmarked)"
  EC50, nM: 638
- COMPOUND: "COc1cc(CN2CC3(CNC3)C2)ccc1Cn1ncc2nc(N)nc(NCC3CC4(CCC4)C3)c21"
  EC50, nM: 583
- COMPOUND: "CCC[C@@H](CCO)Nc1nc(N)nc2cnn(Cc3ccc(CN4CC5(C4)CN(CC4CCC4)C5)cc3OC)c12"
  EC50, nM: 6.1
- COMPOUND: "CCCCNc1nc(N)nc2cnn(Cc3ccc(CN4CC5(C4)CN(C(=O)C4CCC4)C5)cc3OC)c12"
  EC50, nM: 31.9
- COMPOUND: "COc1cc(CN2CC3(C2)CN(C(C)C)C3)ccc1Cn1ncc2nc(N)nc(NCc3noc(C)n3)c21"
  EC50, nM: 68.7
- COMPOUND: "COc1cc(C(=O)N2CC3(CN(C)C3)C2)ccc1Cn1ncc2nc(N)nc(NCC3CC4(C3)CC(F)(F)C4)c21"
  EC50, nM: 2310
- COMPOUND: "CCC[C@@H](CCO)Nc1nc(N)nc2cnn(Cc3ccc(CN4CC5(C4)CN(C(C)=O)C5)cc3OC)c12"
  EC50, nM: 32.4
- COMPOUND: "CCC[C@@H](CCO)Nc1nc(N)nc2cnn(Cc3ncc(C4=CC5(CCN(C6CCOCC6)CC5)C4)cc3OC)c12"
  EC50, nM: 47.5
- COMPOUND: "COc1cc(CNC2CCOCC2)ccc1Cn1ncc2nc(N)nc(NCC3CC4(C3)CC4F)c21 (centres unmarked)"
  EC50, nM: 163
- COMPOUND: "COc1cc(C(=O)N2C[C@@H]3C[C@H]2CN3)ccc1Cn1ncc2nc(N)nc(NCC3CC4(CC4)C3)c21"
  EC50, nM: 365
- COMPOUND: "CCCCNc1nc(N)nc2cnn(Cc3ccc(CN4CCC5(CCNCC5)CC4)cc3OC)c12"
  EC50, nM: 141
- COMPOUND: "CN1CCC(NC(=O)c2ccc(Cn3ncc4nc(N)nc(NCC5CC6(CC6)C5)c43)c(OC(F)F)c2)CC1"
  EC50, nM: 1240
- COMPOUND: "COc1cc(C(=O)N[C@H]2C[C@H](O)C2)ccc1Cn1ncc2nc(N)nc(NCC3CC4(CC4)C3)c21"
  EC50, nM: 579
- COMPOUND: "COc1cc(C(=O)NC2CCN(C)CC2)ccc1Cn1ncc2nc(N)nc(NCC3CC4(CC4)C3)c21"
  EC50, nM: 90.3
- COMPOUND: "CN1CCN(C(=O)c2ccc(Cn3ncc4nc(N)nc(NCC5CC6(CC6)C5)c43)c(OC(F)F)c2)CC1"
  EC50, nM: 247
- COMPOUND: "COc1cc(CN[C@H]2C[C@H](O)C2)ccc1Cn1ncc2nc(N)nc(NCC3CC4(CC4)C3)c21"
  EC50, nM: 23
- COMPOUND: "Nc1nc(NCC2CC3(CC3)C2)c2c(cnn2Cc2ccc(CN3C[C@H]4CNC[C@H]4C3)cc2OC(F)F)n1"
  EC50, nM: 283
- COMPOUND: "COc1cc(C(=O)N(C)CCN(C)C)ccc1Cn1ncc2nc(N)nc(NCC3CC4(CC4)C3)c21"
  EC50, nM: 16
- COMPOUND: "CCCCNc1nc(N)nc2cnn(Cc3ccc(CN4CC5(C4)CN(C(=O)C4(C)CC4)C5)cc3OC)c12"
  EC50, nM: 52.5
- COMPOUND: "CCC[C@@H](CCO)Nc1nc(N)nc2cnn(Cc3ccc(C(=O)N4CC5(CNC5)C4)cc3OC)c12"
  EC50, nM: 242
- COMPOUND: "COc1cc(C(=O)N2CC3(CNC3)C2)ccc1Cn1ncc2nc(N)nc(NCC3CC4(CC4)C3)c21"
  EC50, nM: 785
- COMPOUND: "COc1cc(C(=O)N2C[C@H]3C[C@@H]2CN3C)ccc1Cn1nc(C)c2nc(N)nc(NCC3CC4(CC4)C3)c21"
  EC50, nM: 119
- COMPOUND: "COc1cc(CNC2CCOCC2)ccc1Cn1ncc2nc(N)nc(NCC3CC4(CCC4)C3)c21"
  EC50, nM: 26.9
- COMPOUND: "COc1cc(C(=O)N2CCN(C)CC2)ccc1Cn1ncc2nc(N)nc(NCC3CC4(C3)CC4(F)F)c21 (centres unmarked)"
  EC50, nM: 147
- COMPOUND: "COc1cc(CN2CC3(CC(O)C3)C2)ccc1Cn1ncc2nc(N)nc(NCC3CC4(C3)CC4(F)F)c21 (centres unmarked)"
  EC50, nM: 103
